Procedure details: Plasma concentration in ICR mouse at 30 mg/kg, iv measured at 0.25 hrs by LC/MS/MS analysis
Type: ADME, organism-based
Parameters: dose 30 mg/kg, route intravenous

Smiles representation	concentration at 0.25 h (µg/mL)
Cl.O=c1[nH]nc2c(NCCCc3ccncc3)cc(Cl)cn12	0.634

---

Procedure details: Plasma concentration in ICR mouse at 30 mg/kg, iv measured at 0.75 hrs by LC/MS/MS analysis
Assay type: ADME, organism-based
Design: dose 30 mg/kg, route intravenous
Measured parameter: concentration at 0.75 h (ng/mL)

Smiles representation	Measured parameter	Unit abbreviation	Observed value
Cl.O=c1[nH]nc2c(NCCCc3ccncc3)cc(Cl)cn12	concentration at 0.75 h	ng/mL	1050
